# system under test: 3-hydroxyacyl-CoA dehydrogenase type-2 (Homo sapiens) (UniProt Q99714)
# method notes: qHTS Assay for Inhibitors of HSD17B4, hydroxysteroid (17-beta) dehydrogenase 4;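 note: the protocol describes HADH2 (HSD17B10) and not the HSD17B4 of the title; nearly all actives have a fitted effect of over 70% in size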
# condition details: recombinant HSD17B10, NADH fluorescence kinetic; series mostly up to 57.1 µM
About 5,700 (7.6%) of roughly 75,000 compounds were called active. Not shown: some 7% with an inconclusive outcome. Calls come from the whole dose curve; as a rule, active = well fitted inhibition curve with a large enough effect; inconclusive = small, poorly fitted or top-dose-only effect; inactive = no such curve, though single readings can be large or run the other way. This is one part of a sample in which actives are shown more often than they occur.
Classes used: active, inactive

[[record]]
compound = "CCOC(=O)NCc1ccc2c(c1)OCO2"
label_value = "inactive"

[[record]]
compound = "CCOCCCNC(=O)c1c[nH]c2cc(C)ccc2c1=O"
label_value = "inactive"

[[record]]
compound = "CNC(=O)c1c(NC(=O)c2ccc(S(=O)(=O)N3CCOCC3)cc2)sc2c1CCC2"
label_value = "inactive"

[[record]]
compound = "COC(=O)c1ccc2c(c1)S(=O)(=O)NC(=NCCCN1CCOCC1)S2"
label_value = "inactive"

[[record]]
compound = "COC(=O)c1cnn2c(C(F)(F)F)cc(-c3ccco3)nc12"
label_value = "active"

[[record]]
compound = "Cc1cc(C(F)(F)F)n2ncc(-c3ccccc3)c2n1"
label_value = "inactive"

[[record]]
compound = "Cc1csc(NC(=O)NC2(C(F)(F)F)Oc3ccccc3O2)n1"
label_value = "active"

[[record]]
compound = "C=CCN1C(=O)C(O)(CC(=O)c2ccc(Cl)cc2)c2ccccc21 (stereo unspecified)"
label_value = "inactive"

[[record]]
compound = "COc1cccc2sc(Nc3nc(C)c(C(C)=O)s3)nc12"
label_value = "inactive"

[[record]]
compound = "CCC1=C(OC(=O)N(CC)CC)N2C(=O)OC(=NCC3CC3)[C@]2(C)[C@H]2C1=CC[C@H]1C(=O)N(CC(=O)OC)C(=O)[C@H]12"
label_value = "inactive"

[[record]]
compound = "O=c1ccn(Cc2ccccc2Cl)cc1"
label_value = "inactive"


----------
# system under test: 3-hydroxyacyl-CoA dehydrogenase type-2 (Homo sapiens) (UniProt Q99714)
# method notes: qHTS Assay for Inhibitors of HSD17B4, hydroxysteroid (17-beta) dehydrogenase 4;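 note: the protocol describes HADH2 (HSD17B10) and not the HSD17B4 of the title; nearly all actives have a fitted effect of over 70% in size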
# condition details: recombinant HSD17B10, NADH fluorescence kinetic; series mostly up to 57.1 µM
Hit rate of the full screen: of about 75,000 compounds, about 5,700 (7.6%) were called active. Another 7% or so got no clear call; they are omitted. Calls follow the shape of the dose curve; as a rule, active = well fitted inhibition curve with a large enough effect; inconclusive = small, poorly fitted or top-dose-only effect; inactive = no such curve, though single readings can be large or run the other way. The full list was thinned out, with actives kept by preference.
Possible outcomes: class 1 (active), class 0 (inactive)

[[record]]
molecule = "COc1cc(OC)c2c(c1Cl)OC1(C2=O)C(O)=CC(=O)CC1C (stereo unspecified)"
label_value = "class 0"

[[record]]
molecule = "O=C(CN1CCN(S(=O)(=O)c2ccc(F)cc2)CC1)Nc1ccccc1F"
label_value = "class 0"

[[record]]
molecule = "Cn1c(C(=O)NCCCN2CCCCC2)cc2sccc21"
label_value = "class 0"

[[record]]
molecule = "Cc1c(C)c2cc3c4c(oc3c(C)c2oc1=O)CCCC4"
label_value = "class 0"

[[record]]
molecule = "COc1ccc(Cl)cc1S(=O)(=O)N1CCN(CC(=O)C(C)(C)C)CC1"
label_value = "class 0"

[[record]]
molecule = "Cc1ccsc1-c1nc(CSCC(=O)NCCN2CCCC2)c(C)o1"
label_value = "class 1"

[[record]]
molecule = "Cc1cc(C(=O)O)ccc1[N+](=O)[O-]"
label_value = "class 0"

[[record]]
molecule = "COC(=O)N1CCC2(CCCN(Cc3ccccc3OC)C2)CC1"
label_value = "class 0"

[[record]]
molecule = "COc1ccc2c3c(c(=O)oc2c1OCC(=O)C(C)(C)C)CCCC3"
label_value = "class 1"

[[record]]
molecule = "COc1ccc(C(=O)OCC(=O)c2ccc(C)c(S(=O)(=O)N3CCOCC3)c2)cc1OC"
label_value = "class 0"

[[record]]
molecule = "CN(c1nc2ccccc2n2c(-c3ccco3)nnc12)S(=O)(=O)c1ccccc1"
label_value = "class 1"


Hello, the source for this data is PubChem BioAssay AID893, in case you need it.
